# experimental_system: CD73 on Calu6 cells (Homo sapiens, UniProt P21589)
# Construct: Calu6 (CD73 endogenous expressors; human pulmonary adenocarcinoma cell line); endogenous in cells
# Sequence (P21589 27-549): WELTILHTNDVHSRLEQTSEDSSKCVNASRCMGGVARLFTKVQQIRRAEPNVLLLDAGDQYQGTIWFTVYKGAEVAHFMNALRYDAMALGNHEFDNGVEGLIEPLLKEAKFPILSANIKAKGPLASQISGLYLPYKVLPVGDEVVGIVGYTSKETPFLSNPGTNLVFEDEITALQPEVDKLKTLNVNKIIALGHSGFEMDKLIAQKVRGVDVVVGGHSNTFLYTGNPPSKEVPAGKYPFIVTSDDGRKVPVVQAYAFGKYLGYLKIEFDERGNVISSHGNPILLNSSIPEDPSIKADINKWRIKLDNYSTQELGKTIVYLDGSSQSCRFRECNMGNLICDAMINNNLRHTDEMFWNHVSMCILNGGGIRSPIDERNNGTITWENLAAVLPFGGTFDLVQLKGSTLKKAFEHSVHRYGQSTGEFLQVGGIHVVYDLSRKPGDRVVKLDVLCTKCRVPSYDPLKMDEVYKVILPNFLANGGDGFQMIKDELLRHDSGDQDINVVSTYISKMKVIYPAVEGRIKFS
# assay_comment: Dual cell line HTRF cAMP assay (Calu-6 and HEK293/A2AR cells)
# measurement_conditions: cAMP assay
readout_label: IC50 (nM)
Numbers only, in nM.

Lab note: Nc1ncnc2c1ncn2[C@@H]1O[C@H](COP(=O)(O)CP(=O)(O)O)[C@@H](O)[C@H]1O gave IC50 of 1.29
